- assayed_target: Sodium-dependent dopamine transporter (Rattus norvegicus)
- Sequence (P23977 whole entry): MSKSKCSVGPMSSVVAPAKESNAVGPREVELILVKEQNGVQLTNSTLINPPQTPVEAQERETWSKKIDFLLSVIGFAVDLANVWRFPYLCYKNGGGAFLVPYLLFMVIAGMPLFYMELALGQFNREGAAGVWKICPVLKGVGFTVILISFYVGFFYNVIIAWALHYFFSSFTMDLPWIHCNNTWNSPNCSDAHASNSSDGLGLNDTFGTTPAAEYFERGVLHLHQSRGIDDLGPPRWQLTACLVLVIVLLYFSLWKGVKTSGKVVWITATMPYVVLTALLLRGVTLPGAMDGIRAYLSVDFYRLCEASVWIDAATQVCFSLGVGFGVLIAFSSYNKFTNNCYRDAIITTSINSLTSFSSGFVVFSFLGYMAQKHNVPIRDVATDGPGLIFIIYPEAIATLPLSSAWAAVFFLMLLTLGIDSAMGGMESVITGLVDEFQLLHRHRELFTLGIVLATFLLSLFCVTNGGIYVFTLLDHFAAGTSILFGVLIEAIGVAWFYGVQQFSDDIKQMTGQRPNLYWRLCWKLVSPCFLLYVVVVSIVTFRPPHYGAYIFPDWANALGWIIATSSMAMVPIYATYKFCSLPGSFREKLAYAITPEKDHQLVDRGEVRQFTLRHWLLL
- experimental_protocol: Inhibition of [3H]dopamine uptake in DAT in rat striatum
- Assay type: tissue-based
pKi: −log10 of the molar value.
Examples of molecules with documented pKi follow.

{"columns": ["line_notation", "pKi"],
 "data": [
  ["COc1ccc(CN2CCN3C[C@@H]2CC[C@H]3C(c2ccccc2)c2ccccc2)cc1", 7.74],
  ["O[C@@H](CN1CCN2C[C@@H]1CC[C@H]2C(c1ccccc1)c1ccccc1)c1ccccc1", 6.69],
  ["O[C@H](CCN1CCN2C[C@@H]1CC[C@H]2C(c1ccccc1)c1ccccc1)c1ccc(F)cc1", 7.38],
  ["N#Cc1ccc(CN[C@H]2CC[C@@H](C(c3ccccc3)c3ccccc3)NC2)cc1", 8.04],
  ["O[C@H](CN1CCN2C[C@@H]1CC[C@H]2C(c1ccccc1)c1ccccc1)c1ccc(F)cc1", 6.80],
  ["O[C@@H](CN1CCN2C[C@@H]1CC[C@H]2C(c1ccccc1)c1ccccc1)c1ccc(F)cc1", 7.18],
  ["O[C@H](CN1CCN2C[C@@H]1CC[C@H]2C(c1ccccc1)c1ccccc1)c1ccccc1", 6.58]
]}
